TEST PROTOCOL: Toxicity liver stage against HepG2, at 10uM
Type: cell-based
Parameters: test concentration 10 uM, cell line HepG2-A16-CD81EGFP
CONDITION DETAILS: human, HepG2-A16-CD81EGFP cells; read-out: INHIBITION
READOUT: cytotoxicity at 10 µM
Param answer (str): number followed by unit.

stdin: Fill in the blank: the reported cytotoxicity at 10 µM of CCC(C)N(Cc1ccc(C)cc1)Cc1c[nH]c(C)n1 (configuration not stated) is ____.
stdout: 7.87%

stdin: Fill in the blank: the reported cytotoxicity at 10 µM of CNc1nc(C(=O)N2CCC3(CCCN(CC4CC4)C3=O)C2)cs1 (configuration not stated) is ____.
stdout: 5.33%

stdin: Fill in the blank: the reported cytotoxicity at 10 µM of Cc1nccn1CC1CCCN1S(=O)(=O)Cc1ccccc1 (configuration not stated) is ____.
stdout: -18%

stdin: Fill in the blank: the reported cytotoxicity at 10 µM of `O=C(NCc1nccn1CCc1ccccc1)NCC1CCC1` is ____.
stdout: 4.7%

stdin: Fill in the blank: the reported cytotoxicity at 10 µM of Cc1ccc(C)c2c(C)c(C(=O)NCC[S+](C)[O-])[nH]c12 (configuration not stated) is ____.
stdout: 3.03%

---

TEST PROTOCOL: Toxicity liver stage against HepG2, at 10uM
Type: cell-based
Parameters: test concentration 10 uM, cell line HepG2-A16-CD81EGFP
CONDITION DETAILS: human, HepG2-A16-CD81EGFP cells; read-out: INHIBITION
Listed here are compounds together with their documented cytotoxicity at 10 µM.
API: value field is a number in %; no unit string.

As a guide, the following entries are already answered.
In [3]: df
Out[3]:
                              record_smiles  endpoint_value
0  CC(C)(NC(=O)c1ccc(-c2ccc(F)cc2)s1)C(N)=O           -4.05
1  CCn1nc(C)c(CN(CCOC)C(=O)c2cnc(C)nc2O)c1C           -2.27
2  Cn1ccnc1-c1nc2cc(S(=O)(=O)N3CCCC3)ccc2n1C            5.05
3    N#Cc1cccc(N2CCC(CO)(CCCc3ccccc3)CC2)n1           -45.7
4          CN(CC(N)=O)C(=O)c1cc(Cl)c(Cl)n1C            8.56

stdin: Fill in the blank: the reported cytotoxicity at 10 µM of `c1csc(CN2CCCn3cnc(COCC4CC4)c3C2)c1` is ____.
stdout: -74.6

---

TEST PROTOCOL: Toxicity liver stage against HepG2, at 10uM
Assay type: cell-based
Design: test concentration 10 uM, cell line HepG2-A16-CD81EGFP
CONDITION DETAILS: human, HepG2-A16-CD81EGFP cells; read-out: INHIBITION
Listed here are compounds together with their documented cytotoxicity at 10 µM.
API: value field is a number in %; no unit string.

As a guide, the following entries are already answered.
>>> df
                                   compound                readout  endpoint_value
0  Cn1ccc(C(=O)N2CCCC2c2cc(CCO)[nH]n2)n1 (stereo unspecified)  cytotoxicity at 10 µM            3.31
1  O=C(NCc1cccnc1)C1CC(=O)N(CC2CC2)C1 (stereo unspecified)  cytotoxicity at 10 µM           -3.46
2  CN(Cc1c(F)cccc1Cl)C(=O)c1cnn(CCN2CCCCC2)c1  cytotoxicity at 10 µM           -19.1
3  COc1cccc(N2CCN(C(=O)C(O)CC(C)C)CC2=O)c1 (stereo unspecified)  cytotoxicity at 10 µM           -14.7
4            CCN1CCC(CNC(=O)Nc2cccnc2OC)CC1  cytotoxicity at 10 µM          -0.523

stdin: Fill in the blank: the reported cytotoxicity at 10 µM of `COC(=O)[C@@H]1CCCN1C(=O)c1cn(CCCc2ccccc2)nn1` is ____.
stdout: 3.15

stdin: Fill in the blank: the reported cytotoxicity at 10 µM of CC(C)C(=O)N1CCCC2(CCCN2CC2CCCC2)C1 (stereo unspecified) is ____.
stdout: 5.25

stdin: Fill in the blank: the reported cytotoxicity at 10 µM of `CN(Cc1cnn(C)c1)C(=O)Cn1c(CS(C)(=O)=O)nc2ccccc21` is ____.
stdout: 1.05

stdin: Fill in the blank: the reported cytotoxicity at 10 µM of `O=C(c1ccc(O)nc1)N1CCN(C(=O)c2ccc(F)c(F)c2)CC1` is ____.
stdout: -10.3

stdin: Fill in the blank: the reported cytotoxicity at 10 µM of `CCOc1ccnc(N2CCN(C(=O)C(C)(C)C#N)CC2)n1` is ____.
stdout: -4.91

stdin: Fill in the blank: the reported cytotoxicity at 10 µM of `CC(C)NC(=O)Nc1ccc(-c2nc3c([nH]2)CCNC3)cc1` is ____.
stdout: -3.5
